systemUnderTest: Human recombinant FGF2 (Fibroblast growth factor-2) (human, UniProt P09038 134-288, limits assumed)
Sequence (P09038 134-288 limits assumed): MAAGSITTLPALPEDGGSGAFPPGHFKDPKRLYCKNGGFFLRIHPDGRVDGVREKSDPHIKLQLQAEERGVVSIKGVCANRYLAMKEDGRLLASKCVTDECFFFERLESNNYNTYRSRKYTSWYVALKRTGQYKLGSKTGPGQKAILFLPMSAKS
measurementProtocol: SPR competition (printed as ID50): competitor with FGF2 0.8 µM in the mobile phase over immobilized PTX3
parameterMeasured: pIC50
Notebook: values listed as pIC50 are -log10 of the concentration (mol/L).

// RGELQRLREELGRLAESLARPCAPGAPAE (also called parental peptide PTX3(82-110)) [synthetic peptide PTX3(82-110)] : pIC50 value = 4.52
